Documented composite z-score across a set of molecules
target: Neurogenic locus notch homolog protein 3 (Homo sapiens); assay: small molecules binding NOTCH3 protein – biochemical, 635/667 nm fluorescence, primary screen (AID 1096); settings: small-molecule microarray, 635 nm fluorescence, higher = more signal

molecule: OCC1C=C(/C=C/c2ccccc2)CN1Cc1ccccc1Br (stereo not drawn)
composite z-score: 0.854
//
molecule: O=C1OCCC=C[C@H]2OC34C=CCN(c5ccc(Cl)cc5)C(=O)[C@H]3N(CCCO)C(=O)[C@@H]4C12 (stereo partly drawn)
composite z-score: -0.792
//
molecule: CCCCC(O)C1C=CC2C(=O)N(C)C(=O)C2N1N1CCCCC1 (stereo not drawn)
composite z-score: 0.967

====

target: Concanavalin-A (Canavalia ensiformis) (UniProt P02866); assay: compounds binding concanavalin A lectin – biochemical, small-molecule microarray, Alexa647 label, 635 nm, artefact control for SMM control protein annotation, primary screen (AID 1127); details: ConA-A647 binding fluorescence, higher = more signal;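 further: z combines 667 nm emission intensity with signal-to-noise across three replicate slides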
Sequence (P02866 whole entry, looked up): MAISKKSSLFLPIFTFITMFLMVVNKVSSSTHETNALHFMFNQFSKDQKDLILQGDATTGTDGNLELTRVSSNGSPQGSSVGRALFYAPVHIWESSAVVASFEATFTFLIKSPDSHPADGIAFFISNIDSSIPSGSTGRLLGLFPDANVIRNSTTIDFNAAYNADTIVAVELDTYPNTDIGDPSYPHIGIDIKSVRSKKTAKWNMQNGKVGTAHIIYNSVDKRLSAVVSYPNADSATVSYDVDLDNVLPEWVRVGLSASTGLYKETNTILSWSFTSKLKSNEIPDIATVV
Each entry below carries its recorded composite z-score.
value_type: composite z-score

molecule: O=C1C2C=CC(C(O)c3ccc4c(c3)OCO4)N(Nc3ccc([N+](=O)[O-])cc3)C2C(=O)N1c1ccccc1 (stereo unspecified)
target_under_test: Concanavalin-A (Canavalia ensiformis) (UniProt P02866)
value_type: composite z-score
assay_result: 0.813
//
molecule: O=C1OCC=C[C@H]2OC34C=CCN(CCN5CCOCC5)C(=O)[C@H]3N(CCO)C(=O)[C@@H]4[C@@H]12 (stereo partly specified)
target_under_test: Concanavalin-A (Canavalia ensiformis) (UniProt P02866)
value_type: composite z-score
assay_result: 0.575
//
molecule: CCCCN1CC=CC23O[C@@H]4C=CCOC(=O)[C@@H]4[C@H]2C(=O)N(CCCCCCO)[C@@H]3C1=O (stereo partly specified)
target_under_test: Concanavalin-A (Canavalia ensiformis) (UniProt P02866)
value_type: composite z-score
assay_result: -1.24
//
molecule: CO[C@H]1O[C@H](CO)[C@@H](OC(=O)Nc2ccc(Br)cc2)[C@@H]2OC(=O)[C@H](Cc3cccc(Br)c3)C/C=C/C[C@@H](Cc3cccc(Br)c3)C(=O)O[C@@H]12
target_under_test: Concanavalin-A (Canavalia ensiformis) (UniProt P02866)
value_type: composite z-score
assay_result: 0.365
//
molecule: CC1CC/C=C\[C@H]2OC34C=CCN(Cn5nnc6ccccc65)C(=O)[C@H]3N(CCCCCO)C(=O)[C@@H]4C2C(=O)O1 (stereo partly specified)
target_under_test: Concanavalin-A (Canavalia ensiformis) (UniProt P02866)
value_type: composite z-score
assay_result: -0.845
//
molecule: C=C(CCCC)/C(=C/C[C@@H](OC(C)=O)c1ccccc1OCCO)c1cc(C(=O)OC)ccc1OC
target_under_test: Concanavalin-A (Canavalia ensiformis) (UniProt P02866)
value_type: composite z-score
assay_result: -0.544
//
molecule: O=C1OCCC=C[C@H]2OC34C=CCN(Cn5nnc6ccccc65)C(=O)[C@H]3N(CCO)C(=O)[C@@H]4C12 (stereo partly specified)
target_under_test: Concanavalin-A (Canavalia ensiformis) (UniProt P02866)
value_type: composite z-score
assay_result: -1.75
//
molecule: CN(C)CCCCCCNC(=O)[C@@H]1C[C@@H]2C(=O)N[C@@H](CCCC[N+](C)(C)C)C(=O)N2[C@@H]1c1ccc(O)cc1
target_under_test: Concanavalin-A (Canavalia ensiformis) (UniProt P02866)
value_type: composite z-score
assay_result: 0.898
//
molecule: COc1cc2c(cc1O)C=[N+](Cc1cc3c(cc1Br)OCO3)CC2
target_under_test: Concanavalin-A (Canavalia ensiformis) (UniProt P02866)
value_type: composite z-score
assay_result: -1.27
//
molecule: COc1ccc([C@H]2C[C@H]3C(Br)=C[C@@]2(CO)C(=O)[C@]32CO2)cc1
target_under_test: Concanavalin-A (Canavalia ensiformis) (UniProt P02866)
value_type: composite z-score
assay_result: 0.178
//
molecule: NC(=O)[C@@H]1[C@H]2C(=O)O[C@H](c3ccccc3)[C@H](c3ccccc3)N2[C@H](c2ccc(OCCO)cc2)[C@@]12C(=O)Nc1ccc(C#CC3=CCCCC3)cc12
target_under_test: Concanavalin-A (Canavalia ensiformis) (UniProt P02866)
value_type: composite z-score
assay_result: 1.09

====

test system: Inhibin beta A chain (activin A); experiment: small molecules binding activin A – biochemical, small-molecule microarray, 635 nm fluorescence scan, primary screen (AID 1107); details: INHBA, higher = more signal;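 further: mouse activin A protein probed at 4.33 µg/mL on printed slides; score merges bound-protein fluorescence near 667 nm with spot signal-to-noise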
# composite z-score annotations

compound: COc1cc2c(cc1O)C(c1cccs1)N(Cc1ccc([N+](=O)[O-])o1)CC2 (centres undefined)
composite z-score: -0.131
//
compound: CC(=CC1CCCCC1)[C@@H](NC(=O)c1cccnc1)c1ccc(-c2ccccc2)cc1
composite z-score: 0.679
//
compound: C=C(C)[C@@H]1CC=C(C(O)C2C=CC3C(=O)NC(=O)C3N2Nc2ccc(Cl)cc2Cl)CC1 (some centres undefined)
composite z-score: 1.66
//
compound: COC(=O)c1c(CC[C@@H](CO)NC(=O)NCCc2c[nH]c3ccccc23)oc(C(=O)Cc2ccccc2)c1C(=O)OC
composite z-score: 0.553

====

experiment: binders from COS7 lysate, DM2A8 probe, primary screen, torsin A project, cell lysate, small-molecule microarray, fluorescence 635/667 (AID 1065); conditions: higher = more signal, COS7 lysate expressing mutant human TOR1A

compound: C[N+](C)(C)CCCC[C@@H]1NC(=O)[C@@H]2C[C@H](C(=O)NCCCCCCNC(=O)CS)[C@H](c3ccc(O)cc3)N2C1=O
composite z-score: -0.951
--
compound: OCC1C=C(/C=C/c2ccccc2)CN1Cc1ccccc1Br (stereo unspecified)
composite z-score: 0.422
--
compound: COc1ccc([C@H]2OC[C@@H]3CCC(=O)N32)cc1
composite z-score: 0.428
--
compound: O=C1O[C@@H](c2ccccc2)[C@@H](c2ccccc2)N2[C@@H](c3ccccc3OCCO)[C@]3(C(=O)Nc4ccccc43)[C@@H](C(=O)O)[C@H]12
composite z-score: -0.0324
--
compound: COc1ccc([Si](C)(C)[C@H]2[C@H](CCn3cc([C@H](O)c4ccccc4)nn3)O[C@@]3(C(=O)N(C)c4ccccc43)[C@@H]2C)cc1
composite z-score: 0.165
--
compound: CC(C)(C)OC(=O)CC[C@]1(C(N)=O)N=C(c2ccc(OCCCO)cc2)O[C@H]1c1ccccc1
composite z-score: 1.16

====

target: Carbonic anhydrase 2 (Homo sapiens); assay: compounds binding carbonic anhydrase 2 – biochemical, small-molecule microarray, Alexa647-labelled CAII, profiling panel (AID 1122); details: CAII-A647 binding fluorescence, higher = more signal
Short version: composite z-score at least 0.7 is class 1, less is class 0.

compound: CCCC[C@@H]1C[C@H]1[C@@H](NC(=O)c1cccnc1)c1ccc(Cl)cc1
target_under_test: Carbonic anhydrase 2 (Homo sapiens)
qualitative_label: class 0
//
compound: CS(=O)(=O)CCOC(=O)C1=CC(CCCO)=CC(C2CC2)N(Cc2cc3c(cc2Br)OCO3)C=C1C(=O)OCCS(C)(=O)=O (stereo unspecified)
target_under_test: Carbonic anhydrase 2 (Homo sapiens)
qualitative_label: class 1
//
compound: COc1cc(CO)cc(I)c1O[C@H]1C=C(C(=O)NCCO)C[C@@H](NC[C@@H]2CCCO2)[C@@H]1O
target_under_test: Carbonic anhydrase 2 (Homo sapiens)
qualitative_label: class 0
//
compound: O=C1C2C=CC(C(O)C=Cc3ccc([N+](=O)[O-])cc3)N(n3cnnc3)C2C(=O)N1Cc1ccccc1 (stereo unspecified)
target_under_test: Carbonic anhydrase 2 (Homo sapiens)
qualitative_label: class 0
//
compound: COC(=O)[C@@]1(Cc2ccc(OC)cc2)[C@H]2c3cc(C(=O)N4CCCC4)n(CCSCCO)c3C[C@H]2CN1C(=O)c1ccccc1
target_under_test: Carbonic anhydrase 2 (Homo sapiens)
qualitative_label: class 0
//
compound: C=CCC(OC(C)=O)[C@@H]1[C@@H](N(Cc2ccc(-c3ccccc3)cc2)C(=O)Cc2ccc(F)cc2)c2cc(OCCCO)ccc2N1C(=O)c1ccc2ccccc2c1 (stereo partly specified)
target_under_test: Carbonic anhydrase 2 (Homo sapiens)
qualitative_label: class 0

====

assay: optical density change of DRC41 E. coli – strain DRC41, OD650, 24 h, E. coli filamentation project, primary screen (AID 1093);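 further: MC1000 strain lacking acrAB efflux and sulA so SOS filamentation is blocked; test concentration not given here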; conditions: E. coli DRC41 growth, higher = more signal, called active from +8 up or from −8 down
Attribute: z-score
value_type: z-score

compound: CN1C(=O)C2C=CC(C(O)c3ccc(F)cc3)N(N(c3ccccc3)c3ccccc3)C2C1=O (stereo not drawn)
assay_result: -1.2

compound: COCCCNC(=O)[C@@]1(Cc2ccccc2CN=[N+]=[N-])N=C(c2ccc(OCCCO)cc2)O[C@H]1c1ccccc1CN=[N+]=[N-]
assay_result: 1.71

compound: CCCCCCc1nc(-c2ccc(-c3ccc(Cl)c(Cl)c3)o2)c(C)c2c1[Si](C(C)C)(C(C)C)OC2
assay_result: -0.0336
